As shown below, each of these compounds has a reported pIC50 value.
# target.system: IRAK-4 (Homo sapiens (Human))
# Sequence (Q9NWZ3 whole entry, species assumed): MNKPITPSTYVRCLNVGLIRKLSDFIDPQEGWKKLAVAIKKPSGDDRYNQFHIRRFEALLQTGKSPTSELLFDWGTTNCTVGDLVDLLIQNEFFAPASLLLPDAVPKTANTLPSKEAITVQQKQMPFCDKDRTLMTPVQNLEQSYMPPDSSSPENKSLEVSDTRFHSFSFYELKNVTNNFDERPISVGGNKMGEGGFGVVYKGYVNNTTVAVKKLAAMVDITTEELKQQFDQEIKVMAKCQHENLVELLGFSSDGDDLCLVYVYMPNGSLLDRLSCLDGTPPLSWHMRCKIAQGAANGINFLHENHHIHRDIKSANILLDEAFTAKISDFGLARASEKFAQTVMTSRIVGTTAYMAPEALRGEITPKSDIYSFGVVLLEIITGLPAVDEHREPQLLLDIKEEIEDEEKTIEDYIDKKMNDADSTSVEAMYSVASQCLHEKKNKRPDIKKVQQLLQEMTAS
# experiment: In vitro IRAK-4 kinase assay
# measurement.conditions: purified recombinant IRAK-4, 50 uM ATP, 33P peptide phosphorylation
pIC50: −log10 of the molar value.

- compound: "O=C(Nc1cc(Cl)ccc1OC1CCC(O)CC1)c1cnn2cc(CCCO)cnc12 (centres unmarked) [Example 178]"
  pIC50: 5.03
- compound: "O=C(Nc1cc(Cl)ccc1N1CCCCC1)c1cnn2cc(O)cnc12 [Example 20]"
  pIC50: 7.62
- compound: "CN(C)CC1CCN(c2ccc(Cl)cc2NC(=O)c2cnn3cc(O)cnc23)CC1 [Example 37]"
  pIC50: 7.28
- compound: "O=C(Nc1cc(Cl)ccc1OC[C@@H](O)CO)c1cnn2cccnc12 [Example 137]"
  pIC50: 5.64
- compound: "COc1cc(C(=O)Nc2ccccc2)ccc1NC(=O)c1cnn2cccnc12 [Example 89]"
  pIC50: 6.34
